Target: PKC delta kinase (Homo sapiens)
Sequence (Q05655 whole entry): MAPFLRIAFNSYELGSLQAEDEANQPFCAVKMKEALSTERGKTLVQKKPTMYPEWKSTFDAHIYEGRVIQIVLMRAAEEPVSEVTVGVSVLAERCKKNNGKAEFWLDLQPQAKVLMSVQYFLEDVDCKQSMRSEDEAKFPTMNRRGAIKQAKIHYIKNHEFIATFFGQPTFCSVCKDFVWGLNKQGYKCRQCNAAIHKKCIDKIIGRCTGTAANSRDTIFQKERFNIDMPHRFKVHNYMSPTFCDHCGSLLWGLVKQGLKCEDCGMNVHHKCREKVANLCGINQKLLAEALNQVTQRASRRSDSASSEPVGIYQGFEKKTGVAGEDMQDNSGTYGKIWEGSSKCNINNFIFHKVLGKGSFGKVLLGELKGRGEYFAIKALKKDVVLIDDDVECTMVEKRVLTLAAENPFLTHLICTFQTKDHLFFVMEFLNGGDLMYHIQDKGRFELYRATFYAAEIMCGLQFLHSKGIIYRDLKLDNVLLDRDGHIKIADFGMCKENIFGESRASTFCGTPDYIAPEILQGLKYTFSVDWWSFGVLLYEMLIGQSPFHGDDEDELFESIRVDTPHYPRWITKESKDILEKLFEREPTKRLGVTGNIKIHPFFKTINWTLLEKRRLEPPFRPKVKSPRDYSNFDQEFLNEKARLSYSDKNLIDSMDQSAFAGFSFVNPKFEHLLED
Assay: PKC delta kinase inhibition, coupled-enzyme NADH absorbance assay (Ki)
Type: biochemical
Conditions: 150 μM ATP, 46 nM PKC delta, 30° C.; read-out: Ki PKC delta
# Ki per record follows

compound	Ki
Cc1cc(-c2ccnc3[nH]nc(C(F)(F)F)c23)cc(C(C)(C)C#N)c1	> 1200 nM
CCc1ccc(-c2ccnc3[nH]ncc23)cc1C(C)(C)CN	< 2800 nM
OCc1cccc(-c2ccnc3[nH]ncc23)c1	> 1200 nM
CCC(C)(CN)c1cc(CCO)cc(-c2ccnc3[nH]ncc23)c1 (stereo not shown)	< 500 nM
NCC1(c2cccc(-c3ccnc4[nH]ncc34)c2)CCC(F)(F)CC1	< 2800 nM
Cc1cnc2[nH]ncc2c1-c1cccc(C(C)(C)C#N)c1	> 2000 nM
N#CC1(c2cc(-c3ccnc4[nH]ncc34)cc(C(F)(F)CCN)c2)CC1	< 500 nM
N#CC1(c2cccc(-c3ccnc4[nH]nc(C(F)(F)F)c34)c2)CCC1	< 2800 nM
NCC1(c2cccc(-c3ccnc4[nH]nc(C(F)(F)F)c34)c2)COC1	< 500 nM
CCC1(c2cc(C)cc(-c3ccnc4[nH]nc(C(F)(F)F)c34)c2)CNC(=O)O1 (stereo not shown)	> 1200 nM
CCC(C)(CN)c1cc(C)cc(-c2ccnc3[nH]ncc23)c1 (stereo not shown)	< 500 nM
CC(C)(C#N)c1cc(Br)cc(-c2ccnc3[nH]ncc23)c1	< 2800 nM
Cc1cc(-c2ccnc3[nH]nc(C4CC4)c23)cc(C2(CN)CC2)c1	< 500 nM
N#CC1(c2cc(CC(N)=O)cc(-c3ccnc4[nH]nc(C(F)(F)F)c34)c2)CC1	> 1200 nM
CC[C@](C)(CN)c1cccc(-c2ccnc3[nH]ncc23)c1	< 50 nM
CCC(C)(C#N)c1cc(/C=C/C#N)cc(-c2ccnc3[nH]ncc23)c1 (stereo not shown)	> 2000 nM
COCCC(C)(CN)c1cccc(-c2ccnc3[nH]nc(C(F)(F)F)c23)c1 (stereo not shown)	< 500 nM
CC#CCC(C)(CN)c1cc(C)cc(-c2ccnc3[nH]ncc23)c1 (stereo not shown)	< 50 nM
NCC1CCc2ccc(-c3ccnc4[nH]ncc34)cc21 (stereo not shown)	< 500 nM
N#CC1(c2cccc(-c3ccnc4[nH]ncc34)c2)CC1	< 500 nM
CCC(C)(CNC)c1cccc(-c2ccnc3[nH]ncc23)c1 (stereo not shown)	< 500 nM
FC(F)C1(c2cccc(-c3ccnc4[nH]ncc34)c2)CCNC1 (stereo not shown)	< 500 nM
NCC1(c2cccc(-c3ccnc4[nH]nc(C(F)(F)F)c34)c2)CCC1	< 500 nM
CCC(CN)c1cccc(-c2ccnc3[nH]nc(C(F)(F)F)c23)c1 (stereo not shown)	< 50 nM
CCCc1cc(-c2ccnc3[nH]ncc23)cc(C(C)(C)CC#N)c1	> 2000 nM

Reference for the values: patent US8173635B2
